// HepaRG spheroids HepaRG <10 uM All records
Property: HepaRG <10 uM All

>>> result("CC(C)[N+](C)(CCOC(=O)C1c2ccccc2Oc2ccccc21)C(C)C")
"-ve"
>>> result("O=P1(N(CCCl)CCCl)NCCCO1 (stereo not shown) [cyclophosphamide, reference compound]")
"-ve"
>>> result("Nc1c2c(nc3ccccc13)CCCC2 [tacrine, reference compound]")
"-ve"

====

# System: HepaRG spheroids
# Protocol Text: Combined HCI (HCS) and cellular ATP 3D assay in HepaRG spheroids
# Measurement Parameters: HepaRG; all endpoints; cut-off <10 uM
Property: HepaRG <10 uM All

Example entries and their recorded answers appear below.
>>> result("CCc1ccc(CCOc2ccc(CC3SC(=O)NC3=O)cc2)nc1 (stereo not drawn) [pioglitazone, reference compound]")
"-ve"
>>> result("Cc1ccc(N(CC2=NCCN2)c2cccc(O)c2)cc1")
"-ve"
>>> result("Cc1ccc(C(=O)c2cc(O)c(O)c([N+](=O)[O-])c2)cc1 [tolcapone, reference compound]")
"-ve"
>>> result("O=C1CN(/N=C/c2ccc([N+](=O)[O-])o2)C(=O)N1 [nitrofurantoin, reference compound]")
"+ve (<10 uM)"
>>> result("C#CCN(C)Cc1ccccc1")
"-ve"

Memo: C1CCC(C(CC2CCCCN2)C2CCCCC2)CC1 (stereo not drawn) , reported HepaRG <10 uM All: +ve (<10 uM)

Memo: C[N+](C)(C)CC(=O)O [betaine, reference compound] , reported HepaRG <10 uM All: -ve

Memo: CCCC(CCC)C(=O)O , reported HepaRG <10 uM All: -ve

Memo: N[C@@H]1[C@H]2CN(c3nc4c(cc3F)c(=O)c(C(=O)O)cn4-c3ccc(F)cc3F)C[C@@H]12 , reported HepaRG <10 uM All: +ve (<10 uM)

====

# System: hLiMTs
# Protocol Text: Combined HCI (HCS) and cellular ATP 3D assay in hLiMTs
# Measurement Parameters: hLiMTs; all endpoints (ATP and HCS); cut-off <25x Avg Cmax
Property: hLiMTs <25x Avg Cmax All

>>> result("Cc1ccc(C(=O)c2cc(O)c(O)c([N+](=O)[O-])c2)cc1 [tolcapone, reference compound]")
"+ve"
>>> result("CCN(CC)C(=O)/C(C#N)=C/c1cc(O)c(O)c([N+](=O)[O-])c1")
"+ve"
>>> result("CN(C)CCC(c1ccc(Cl)cc1)c1ccccn1 (centres unmarked)")
"-ve"
>>> result("Cn1cnc([N+](=O)[O-])c1Sc1ncnc2nc[nH]c12")
"+ve"
>>> result("[H]/N=C(/N)N[C@H]1[C@H](O)[C@@H](O)[C@H](O[C@@H]2O[C@@H](C)[C@](O)(C=O)[C@H]2O[C@@H]2O[C@@H](CO)[C@H](O)[C@@H](O)[C@@H]2NC)[C@@H](N/C(N)=N\\[H])[C@@H]1O [streptomycin, reference compound]")
"-ve"
>>> result("CCOC(=O)CN[C@@H](C(=O)N1CC[C@H]1C(=O)NCc1ccc(/C(N)=N\\O)cc1)C1CCCCC1")
"-ve"
>>> result("O=c1[nH]c(=O)n([C@@H]2O[C@H](CO)[C@@H](O)[C@@H]2F)cc1I")
"+ve"
>>> result("CN(C)C(=O)Oc1cccc([N+](C)(C)C)c1")
"-ve"
>>> result("Cc1c(C)c2c(c(C)c1O)CCC(C)(COc1ccc(CC3SC(=O)NC3=O)cc1)O2 (centres unmarked) [troglitazone, reference compound]")
"+ve"
>>> result("Clc1ccccc1CN1CCc2sccc2C1")
"+ve"

Assay hLiMTs, sample CCc1nn(CCCN2CCN(c3cccc(Cl)c3)CC2)c(=O)n1CCOc1ccccc1 [nefazodone, reference compound] , hLiMTs <25x Avg Cmax All read: +ve

Assay hLiMTs, sample O=C(O)Cc1ccccc1Nc1c(Cl)cccc1Cl , hLiMTs <25x Avg Cmax All read: +ve

Assay hLiMTs, sample CCc1ccc(CCOc2ccc(CC3SC(=O)NC3=O)cc2)nc1 (centres unmarked) [pioglitazone, reference compound] , hLiMTs <25x Avg Cmax All read: +ve

Assay hLiMTs, sample NC(=O)N1c2ccccc2C=Cc2ccccc21 [carbamazepine, reference compound] , hLiMTs <25x Avg Cmax All read: +ve

Assay hLiMTs, sample CC(C)C(=O)Nc1ccc([N+](=O)[O-])c(C(F)(F)F)c1 [flutamide, reference compound] , hLiMTs <25x Avg Cmax All read: +ve

Assay hLiMTs, sample CN1CCN(C2=Nc3cc(Cl)ccc3Nc3ccccc32)CC1 , hLiMTs <25x Avg Cmax All read: +ve

Assay hLiMTs, sample N[C@@H]1[C@H]2CN(c3nc4c(cc3F)c(=O)c(C(=O)O)cn4-c3ccc(F)cc3F)C[C@@H]12 , hLiMTs <25x Avg Cmax All read: +ve
